Read-out: Intercellular Adhesion Molecule 1 (ICAM1), ICAM1 (gene 3383)
Method Description: LTEA_HepaRG_ICAM1: Life Technologies and Expression Analysis (LTEA) Assay for Intercellular Adhesion Molecule 1 (ICAM1) using HepaRG (AID 2283507)
Particulars: mRNA level, 48 h; actives raise or lower the signal
Calls of active or inactive are those of the source. The calls were made as follows: active = hit-call score of the fitted dose curve at least 0.9, where 1 is the maximum; inactive = score below 0.9.
Lab note: assign the record to one of active, inactive

[
  {
    "Smiles Notation": "NC(=O)Cn1c(=O)cc(CCN2CCN(c3nccc4sccc34)CC2)c2ccc(F)cc21",
    "Assigned Category": "active"
  },
  {
    "Smiles Notation": "CCCCCCC(=O)OCC",
    "Assigned Category": "inactive"
  },
  {
    "Smiles Notation": "Cc1ccc2ncccc2c1",
    "Assigned Category": "inactive"
  },
  {
    "Smiles Notation": "CN1CCN(Cc2cc(-c3ccc4[nH]c(=O)oc4c3)co2)[C@@H](c2ccc(F)cc2)C1",
    "Assigned Category": "inactive"
  },
  {
    "Smiles Notation": "CCOc1ccc2c(c1)C(C)=CC(C)(C)N2",
    "Assigned Category": "inactive"
  },
  {
    "Smiles Notation": "O=c1c(O)c(-c2ccc(O)c(O)c2)oc2cc(O)cc(O)c12",
    "Assigned Category": "inactive"
  },
  {
    "Smiles Notation": "CCCCCCOCCO",
    "Assigned Category": "inactive"
  },
  {
    "Smiles Notation": "CN[C@H]1CC[C@@H](c2ccc(Cl)c(Cl)c2)c2ccc(S(N)(=O)=O)cc21",
    "Assigned Category": "active"
  },
  {
    "Smiles Notation": "CCCCCCCCCCCCCCCCCC(=O)O",
    "Assigned Category": "inactive"
  },
  {
    "Smiles Notation": "NCCO",
    "Assigned Category": "inactive"
  }
]

Req: Which result was noted for this compound in the test: O=c1[nH]cc(F)c(=O)[nH]1
Resp: inactive
